B1: CDC25A (parent)
chain: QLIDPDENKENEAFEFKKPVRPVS

Variants of: B1
Experiment: protein stability index of a GFP-peptide fusion (GPS, HEK-293T) (PSI 1-6); higher = more stable;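 further: lentivirally expressed fusions sorted by FACS into six bins by GFP to DsRed ratio, PSI derived from sequencing read proportions per bin multiplied by bin number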
Settings: c terminus: a fixed tail appended
ASSAY_ENDPOINT: protein stability index
API doc: respond with a numeric literal and nothing else, no unit.

What value of protein stability index has been recorded for this entry: "D6N" 4.4

What value of protein stability index has been recorded for this entry: "R21C" 4.34

What value of protein stability index has been recorded for this entry: "E15L" 3.36

What value of protein stability index has been recorded for this entry: "K9D" 4.97

What value of protein stability index has been recorded for this entry: "L2C" 4.64

What value of protein stability index has been recorded for this entry: "E15K" 4.3

What value of protein stability index has been recorded for this entry: "V23D" 4.41

What value of protein stability index has been recorded for this entry: "F14W" 3.2

What value of protein stability index has been recorded for this entry: "E15Y" 3.02

What value of protein stability index has been recorded for this entry: "P5A" 3.99

What value of protein stability index has been recorded for this entry: "E12M" 2.78

What value of protein stability index has been recorded for this entry: "K18E" 5.52

What value of protein stability index has been recorded for this entry: "F14G" 4.53

What value of protein stability index has been recorded for this entry: "E12T" 3.94

What value of protein stability index has been recorded for this entry: "E15I" 3.7

What value of protein stability index has been recorded for this entry: "E7I" 4.06

What value of protein stability index has been recorded for this entry: "F14P" 4.92

What value of protein stability index has been recorded for this entry: "S24E" 4.67

What value of protein stability index has been recorded for this entry: "N8L" 4.52

What value of protein stability index has been recorded for this entry: "Q1D" 2.88

What value of protein stability index has been recorded for this entry: "F14L" 4.21

What value of protein stability index has been recorded for this entry: "F16S" 4.21
